The reported numbers originate from patent EP2398468B1.

Experiment: Equilibrium solubility in aqueous solutions, shaking flask method for 24 hours
Format: physicochemical
Settings: phosphate buffer solution pH 6.8, pH 6.8, aqueous buffer, thermodynamic from solid, Phosphate Buffer solution pH 6.8; room temperature; 24 hours; read-out: Solubility (mg/mL) room temp
Structures can show the parent of a compound that is named as a salt.
experimental-endpoint: solubility at 24 h (mg/mL)
Give bare numbers, in mg/mL.

## Input Please supply the value of reported solubility at 24 h for the item CC(=O)Oc1cc2c(s1)CCN(C(C(=O)C1CC1)c1ccccc1F)C2 (stereo not shown) [Prasugrel hydrobromide]
## Output 0.003
